Reported values of melting point for individual entries

CN(C)c1ccc(/C=C/C(=O)CC(=O)CCc2ccc(O)cc2)c([N+](=O)[O-])c1 :: 136 to 142 °C
CN(C)c1ccc(/C=C/C(=O)CC(=O)/C=C/c2ccc(O)cc2)c2ccccc12 :: 82 to 86 °C
COc1ccc(/C=C/C(=O)CC(=O)/C=C/c2c(OC)ccc3ccccc23)cc1O :: 150 to 155 °C

Please report melting point for the following compound: O=C(/C=C/c1cc(O)ccc1Br)CC(=O)CCc1ccc(O)cc1 161 to 165 °C

Please report melting point for the following compound: CC(C)(C)OC(=O)Nc1ccc(/C=C/C(=O)CC(=O)/C=C/c2ccc(O)cc2)cc1 181 to 184 °C

---

Reported values of melting point for individual entries

Use these answered entries as a reference point.
COc1cc(O)cc(/C=C/C(=O)CC(=O)/C=C/c2ccc(OC)c(O)c2)c1 :: 196 to 200 °C
CCN(CC)c1ccc(/C=C/C(=O)CC(=O)/C=C/c2ccc(OC)c(O)c2)c(OCC=C(C)C)c1 :: 139 to 143 °C
O=C(/C=C/c1ccc(O)c(Cl)c1)CC(=O)/C=C/c1ccc(O)c(Cl)c1 :: 203 to 208 °C
COc1cc(/C=C/C(=O)CC(=O)/C=C/c2cccnc2)ccc1O :: 176 to 179 °C
CN(C)c1ccc(/C=C/C(=O)CC(=O)/C=C/c2ccc(N(C)C)cc2[N+](=O)[O-])c([N+](=O)[O-])c1 :: 245 to 250 °C
O=C(/C=C/c1cc(O)ccc1-c1cccc2ccccc12)CC(=O)CCc1ccc(O)cc1 :: 138 to 142 °C

// switching to the query molecule
Please report melting point for the following molecule: COc1ccc(/C=C/C(=O)CC(=O)/C=C/c2cc(O)ccc2[N+](=O)[O-])cc1O 107 to 111 °C

---

Endpoint Label: melting point

Use these answered entries as a reference point.
COc1ccc(/C=C/C(=O)CC(=O)/C=C/c2ccc(N(C)C)cc2OC)cc1O :: 108 to 113 °C
O=C(/C=C/c1ccc(O)cc1)CC(=O)/C=C/c1ccc2ccccc2c1-c1ccccc1 :: 218 to 222 °C
COc1cc(/C=C/C(=O)CC(=O)/C=C/c2cccc(OC)c2OC)ccc1O :: 57 to 65 °C

// switching to the query molecule
Please report melting point for the following molecule: Cc1ccc(-n2cccc2/C=C/C(=O)CC(=O)/C=C/c2cccn2-c2ccc(C)cc2)cc1 151 to 155 °C

---

Reported values of melting point for individual entries

COc1cc(/C=C/C(=O)CC(=O)/C=C/c2ccc3c(c2)OCCO3)ccc1O :: 141 to 145 °C

Please report melting point for the following compound: COc1cc(/C=C/C(=O)CC(=O)/C=C/c2ccc(NC(C)=O)cc2)ccc1O 193 to 195 °C

Please report melting point for the following compound: COc1cc(/C=C/C(=O)CC(=O)/C=C/c2ccc(Cl)cc2)ccc1O 59 to 61 °C

Please report melting point for the following compound: COc1cc(Br)c(/C=C/C(=O)CC(=O)/C=C/c2ccc(O)cc2)cc1O 224 to 229 °C

Please report melting point for the following compound: CCN(CC)c1ccc(/C=C/C(=O)CC(=O)/C=C/c2ccc(O)c(OC)c2)c(O)c1 89 to 92 °C

Please report melting point for the following compound: COc1ccc(/C=C/C(=O)CC(=O)/C=C/c2c(OC)cccc2OC)cc1O 74 to 80 °C

Please report melting point for the following compound: COc1ccc(/C=C/C(=O)CC(=O)/C=C/c2c(O)cccc2OC)cc1O 181 to 185 °C

Please report melting point for the following compound: Cc1ccc(Oc2ccc(/C=C/C(=O)CC(=O)/C=C/c3ccc(Oc4ccc(C)cc4)nc3)cn2)cc1 185 to 190 °C

Please report melting point for the following compound: COc1ccc(/C=C/C(=O)CC(=O)/C=C/c2cccc(Oc3ccccc3)c2)cc1O 148 to 150 °C

Please report melting point for the following compound: CN(C)c1cc(-c2ccccc2)ccc1/C=C/C(=O)CC(=O)/C=C/c1ccc(O)cc1 83 to 88 °C

Please report melting point for the following compound: CCN(CC)c1ccc(/C=C/C(=O)CC(=O)/C=C/c2ccc(O)cc2)c(OCC=C(C)C)c1 69 to 76 °C
